Value source: patent US7090834B1

# tested.on: KDR receptor (Homo sapiens, UniProt P35968)
# Sequence (P35968 20-327 limits assumed): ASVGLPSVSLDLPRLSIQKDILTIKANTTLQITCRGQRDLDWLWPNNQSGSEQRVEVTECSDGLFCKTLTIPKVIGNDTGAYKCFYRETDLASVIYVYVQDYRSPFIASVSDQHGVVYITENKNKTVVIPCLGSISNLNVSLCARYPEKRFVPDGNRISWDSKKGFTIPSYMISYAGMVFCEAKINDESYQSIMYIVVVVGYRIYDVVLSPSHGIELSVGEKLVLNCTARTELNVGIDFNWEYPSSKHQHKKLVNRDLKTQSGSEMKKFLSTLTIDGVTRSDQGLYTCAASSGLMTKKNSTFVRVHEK
# experiment.description: KDR receptor binding ELISA (inhibition of biotinylated native VEGF (8–109) binding)
# measurement.parameters: second figure of the cell, variant midpoint concentration divided by that of native VEGF
Measured Relative Binding Affinity, KDR Receptor: ratio to native VEGF (8–109), listed per entry for reference.
assay.metric: Relative Binding Affinity, KDR Receptor: ratio to native VEGF (8–109)

molecule="LK-VRB-20s (ligand, human, UniProt P15692-4 27-135, looked up) APMAEGGGQNHHEVVKFMDVLRRSSCHPIETLVDIFQEYPDEIEYIFKPSCVPLMRCGGCCNSEMRECVPTEESNITMQIMRIKPHQGQHIGEMSFLQHNKCECRPKKD" observed_result="2 nM/2"
molecule="LK-VRB-9s (ligand, human, UniProt P15692-4 27-135, looked up) APMAEGGGQNHHEVVKFMDVYRRSYCHPIETLVDIFQEYPDEIEYIFKPSCVPLMRCGGCCNSEMRECVPTEESNITMQIMRIKPHQGQHIGEMSFLQHNKCECRPKKD" observed_result="0.5 nM/0.5"
